The entries below are paired with their reported GI50.
system: DMS-114; assay: NCI tumour cell line growth inhibition, 48 h
Calls of active or inactive are those of the source. Rule as the data show it: active = GI50 up to about 1.1 µM and inactive = higher.
outcome.measure: GI50

> print(dat)
                                   compound  target.system  outcome.measure             measured
1  O=C(NN1C(=O)CS(=O)(=O)C1c1cccc(F)c1)c1ccncc1 (stereo not given)        DMS-114             GI50  > 100 µM (inactive)
2      O=c1nc2sc3ccc4ccccc4c3n2nc1-c1ccccc1        DMS-114             GI50  > 100 µM (inactive)
3  COc1ccc(C(=O)OC2C=COC(C)C2OC(=O)c2ccc(OC)cc2)cc1 (stereo not given)        DMS-114             GI50   17.5 µM (inactive)
4  O=P1(NCCCl)OCCCN1CCCl (stereo not given) [IFOSFAMIDE]        DMS-114             GI50    399 µM (inactive)
5  CC1=C(C(=O)Nc2cc(F)c(F)cc2F)C(c2ccc3c(c2)OCO3)C(C(=O)Nc2cc(F)c(F)cc2F)=C(C)N1        DMS-114             GI50   17.7 µM (inactive)

---

test system: U-251; assay: NCI tumour cell line growth inhibition, 48 h
Calls of active or inactive are those of the source. No stated cut-off is given here; in the data, active = GI50 up to about 1.1 µM and inactive = higher.
Labels: active, inactive

> print(dat)
                                    compound  label.value
 1  CC[N+]1(C)CCC(O)(c2ccc(Cl)cc2)C(C(=O)c2ccc(Cl)cc2)C1 (stereo not given)     inactive
 2  O=C(/C=C/c1ccc(Br)cc1)c1ccc(NCc2nc3ccccc3[nH]2)cc1     inactive
 3  C[C@H](N)C(=O)N[C@@H]1[C@H]2C(=C(O)C[C@@H](O)[C@@H]2O)C(=O)O[C@]1(C)C(Cl)Cl       active
 4  COC(=O)C12C(=O)CC3CCC1C32C(=O)OC (stereo not given)     inactive
 5  NC(=O)c1nnsc1N/N=C/c1ccc([N+](=O)[O-])cc1     inactive
 6                    CC(C)(C)OC[C@H](O)CC#N     inactive
 7      Cc1ccc(S(=O)(=O)N2CCCSCCSCCCSCC2)cc1     inactive
 8    CCOc1ccc(/N=C\c2cc(OC)c(OC)c(OC)c2)cc1     inactive
 9            CCCCOC(=O)CN1C(=O)c2ccccc2C1=O     inactive
10  CCC1OC2C(CC=C(C)C)=C3OC(C)(O)C(C)(CC)C(=O)C3=C3OC(=O)C=C1C32 (stereo not given)     inactive

---

system: HT-29; test: NCI tumour cell line growth inhibition, 48 h
The source made the active and inactive calls. Rule as the data show it: active = GI50 up to about 1.1 µM and inactive = higher.
Labels: active, inactive

> print(dat)
                                    molecule  target.system  label.value
 1  COC(=O)C1=Nc2c(C)nn(-c3ccccc3)c2N=C(c2ccc([N+](=O)[O-])cc2)C1          HT-29     inactive
 2        CCCCCCCCCCCCC/C=C1\C[C@H](O)COC1=O          HT-29     inactive
 3  CCN(CC)/C(SCc1ccccc1)=C(\C(Cl)=C(Cl)Cl)[N+](=O)[O-]          HT-29     inactive
 4  C=C(C)C1CCC2=CC(CC3(C)OC3C3=CC(C(=O)OC)=C(C1)O3)OC2=O (stereo unspecified)          HT-29     inactive
 5             N=c1oc2ccccc2cc1C(=O)Nc1nccs1          HT-29     inactive
 6  CC(=O)CC(O)(C(F)(F)Cl)C(F)(Cl)Cl (stereo unspecified)          HT-29     inactive
 7        NC(=O)c1ccc(NCC2=CC(=O)C=CC2=O)cc1          HT-29     inactive
 8                      COC(=O)c1nsc(OC)c1Cl          HT-29     inactive
 9  COC(=O)C12C(=O)CC3CCC1C32C(=O)OC (stereo unspecified)          HT-29     inactive
10  NC(=O)c1nnsc1N/N=C/c1ccc([N+](=O)[O-])cc1          HT-29     inactive
11  C[C@H](N)C(=O)N[C@@H]1[C@H]2C(=C(O)C[C@@H](O)[C@@H]2O)C(=O)O[C@]1(C)C(Cl)Cl [BACTOBOLIN]          HT-29       active

---

system: MCF7; assay: NCI tumour cell line growth inhibition, 48 h
Calls of active or inactive are those of the source. No stated cut-off is given here; in the data, active = GI50 up to about 1.1 µM and inactive = higher.
Possible outcomes: label 1 for active, label 0 for inactive

> print(dat)
                                   compound  label.value
1  C[C@H](N)C(=O)N[C@@H]1[C@H]2C(=C(O)C[C@@H](O)[C@@H]2O)C(=O)O[C@]1(C)C(Cl)Cl      label 1
2  COc1ccc2c(c1)c1nn(CCN(C)C)c3ccc4c(=O)n(CCN(C)C)c(=O)n2c4c13      label 1
3        NS(=O)(=O)c1ccc(/N=N/c2ncccc2O)cc1      label 0
4  C#CCCCC(=O)N(C(=O)C[S+]([O-])CC)c1ccccc1 (centres undefined)      label 0
5    Cc1ccc(Cl)cc1/N=N/C(=O)NNc1cc(Cl)ccc1C      label 0
6  O=C(CC(=O)N(C(=O)c1ccccc1)c1ccc(Cl)cc1)N/N=C\c1cc(/N=N/c2ccccc2Cl)ccc1O      label 0
7  Cc1c(/N=N/c2ccc(Cl)cc2)c(-c2ccccc2)n(C2OC(CO)C(O)C(O)C2O)c(=S)c1C#N (centres undefined)      label 0
8                  O=C(NO)c1ccc(C(=O)NO)cc1      label 0
9  COC(=O)[C@H](Cc1ccccc1)NC(=O)N1CCN(C(=O)N[C@@H](Cc2ccccc2)C(=O)OC)CCN(C(=O)N[C@@H](Cc2ccccc2)C(=O)OC)CC1      label 0

---

system: SNB-75; experiment: NCI tumour cell line growth inhibition, 48 h
Active and inactive are the calls of the source. No stated cut-off is given here; in the data, active = GI50 up to about 1.1 µM and inactive = higher.
Labels: YES for active, NO for inactive

> print(dat)
                                    compound  label.value
 1     Nc1ccc(Cc2ccc(N)c(C(=O)O)c2)cc1C(=O)O           NO
 2  COc1ccc2nc3cc(Cl)ccc3c(NCCCN3CCN(CCCNc4ccc5nnn6c7ccccc7c(=O)c4c56)CC3)c2c1           NO
 3  CN(C)c1ccc(/C=N\NC(=O)c2ccccc2Nc2ccccc2C(=O)N/N=C/c2ccc(N(C)C)cc2)cc1           NO
 4        CN(C)S(=O)(=O)Nc1nnc(S(N)(=O)=O)s1           NO
 5      Cn1c(-c2ccc(C=O)o2)ccc1-c1ccc(C=O)o1           NO
 6  COC(=O)CC1C(C)(C)C(=O)C2CC3=C4CC(=O)OC(c5ccoc5)C4(C)CCC3C1(C)C2=O (stereo not given)           NO
 7    C#CCOC(=O)C(N)C(C)O (stereo not given)           NO
 8  CC[N+]1(C)CCC(O)(c2ccc(Cl)cc2)C(C(=O)c2ccc(Cl)cc2)C1 (stereo not given)           NO
 9  CC(=O)OC(Cn1cncn1)(Cn1cncn1)c1ccc(Cl)cc1Cl           NO
10  CC(CN(C)C)C(O)(c1ccccc1)c1ccccc1 (stereo not given)           NO
11  CC(Cl)CC(=O)OCC1CCCN2CCCCC12 (stereo not given)           NO
12  CC(C)C(C(=O)O)N(CC1(O)OCC(O)C(O)C1O)N=O (stereo not given)           NO
13  Cc1ncc([N+](=O)[O-])n1CCNC(=O)Cn1ccnc1[N+](=O)[O-]           NO
14  CCN(CC)CCCNc1ccc2ncn3c4ccc(O)cc4c(=O)c1c23          YES
15   COc1cc2cc(OC)c3cc4c(cc3c2c(OC)c1OC)OCO4           NO

---

test system: SW-620; assay: NCI tumour cell line growth inhibition, 48 h
Activity calls are given as the source filed them. No stated cut-off is given here; in the data, active = GI50 up to about 1.1 µM and inactive = higher.
Listed next: entries and their corresponding GI50.
outcome.measure: GI50

compound	measured
CC(CN(C)C)C(O)(c1ccccc1)c1ccccc1 (centres undefined)	> 100 µM (inactive)
O=C(O)c1nc(-c2ccccc2)ncc1-c1nnnn1-c1ccccc1	> 100 µM (inactive)
Cc1ncc([N+](=O)[O-])n1CCNC(=O)Cn1ccnc1[N+](=O)[O-]	> 100 µM (inactive)
Cc1ccc(C)c(NC(=O)C(=O)CC(=O)c2cccc3ccccc23)c1	> 100 µM (inactive)
CCOC(=O)NC(=O)c1cn(CCN2CCN(C(=O)CCCCCCCCCCNc3ncnc4[nH]cnc34)CC2)c(=O)[nH]c1=O	> 100 µM (inactive)
CC1OC(OC2C(CO)OC(O[C@H]3CC[C@@]4(C)C(=CC[C@H]5[C@@H]6C[C@@H]7O[C@](O)(CC[C@H](CO)COC8OC(CO)C(O)C(O)C8O)[C@@H](C)[C@@H]7[C@@]6(C)CC[C@@H]54)C3)C(OC3OC(C)C(O)C(O)C3O)C2O)C(O)C(O)C1O (some centres undefined)	> 100 µM (inactive)
CCCC(O)[C@@H](O)c1ccc2c(c1O)C(=O)c1c(OC)cccc1C2=O (some centres undefined)	63.2 µM (inactive)
S=C1ON=C(c2ccccc2)/C1=C/Nc1ccccc1	> 100 µM (inactive)
CSC(CC(=O)O)C(=O)O (centres undefined)	> 100 µM (inactive)
Cc1c(/N=N/c2ccc(Cl)cc2)c(-c2ccccc2)n(C2OC(CO)C(O)C(O)C2O)c(=S)c1C#N (centres undefined)	17.6 µM (inactive)
CCCCn1c(C)c2c(c1C)C(=O)N(CC(O)CN1CCc3ccccc3C1)C2=O (centres undefined)	> 100 µM (inactive)
CC(C)(C)NCC(COc1ccc([N+](=O)[O-])cc1)OP(c1ccccc1)c1ccccc1 (centres undefined)	47.4 µM (inactive)
CCN(C(C)=N)c1ccccc1	> 100 µM (inactive)
COC(=O)c1nsc(OC)c1Cl	> 100 µM (inactive)

Source of measurements: ChEMBL document CHEMBL1201862
